test: Equilibrium (apparent) solubility of APR, shake flask method; type: physicochemical; settings: Miglyol 840 (oily excipient), 25 °C, oil or lipid, thermodynamic from solid, oily excipient Miglyol 840, 25 °C; read-out: APR solubility
parameter_measured: solubility at 24 h (µg/mL)
Respond numerically; units are µg/mL and should not be typed.

Any idea what its solubility at 24 h is? The compound is C[C@@H](O[C@H]1OCCN(Cc2nc(=O)[nH][nH]2)[C@H]1c1ccc(F)cc1)c1cc(C(F)(F)F)cc(C(F)(F)F)c1 [APR]
1590

====

experiment: Equilibrium (apparent) solubility of APR, shake flask method; assay type: physicochemical; conditions: buffer pH 4.5, 37 °C, pH 4.5, aqueous buffer, thermodynamic from solid, buffer pH 4.5, 37 °C, 24 h; read-out: APR solubility
parameter_measured: solubility at 24 h (µg/mL)
Respond numerically; units are µg/mL and should not be typed.

Any idea what its solubility at 24 h is? The molecule is C[C@@H](O[C@H]1OCCN(Cc2nc(=O)[nH][nH]2)[C@H]1c1ccc(F)cc1)c1cc(C(F)(F)F)cc(C(F)(F)F)c1
0.79

====

assay: Equilibrium (apparent) solubility of APR, shake flask method; assay type: physicochemical; details: PEG 400 (cosolvent), 25 °C, organic solvent or mixture, thermodynamic from solid, cosolvent PEG 400, 25 °C; read-out: APR solubility
parameter_measured: solubility at 24 h (mg/mL)
Respond numerically; units are mg/mL and should not be typed.

Any idea what its solubility at 24 h is? The compound is C[C@@H](O[C@H]1OCCN(Cc2nc(=O)[nH][nH]2)[C@H]1c1ccc(F)cc1)c1cc(C(F)(F)F)cc(C(F)(F)F)c1
12

====

experiment: Equilibrium (apparent) solubility of APR, shake flask method; assay type: physicochemical; conditions: blank SNEDDS preconcentrate, 37 °C, organic solvent or mixture, thermodynamic from solid, Imwitor 988:Kolliphor RH40:Transcutol P (%) 20:10:70, 37 °C; read-out: APR solubility (loading capacity of SNEDDS preconcentrate)
parameter_measured: solubility at 24 h (mg/mL)
Respond numerically; units are mg/mL and should not be typed.

Any idea what its solubility at 24 h is? The compound is C[C@@H](O[C@H]1OCCN(Cc2nc(=O)[nH][nH]2)[C@H]1c1ccc(F)cc1)c1cc(C(F)(F)F)cc(C(F)(F)F)c1 [APR]
51

====

assay: Equilibrium (apparent) solubility of APR, shake flask method; assay type: physicochemical; details: Kollisolv GTA (oily excipient), 25 °C, oil or lipid, thermodynamic from solid, oily excipient Kollisolv GTA, 25 °C; read-out: APR solubility
parameter_measured: solubility at 24 h (µg/mL)
Respond numerically; units are µg/mL and should not be typed.

Any idea what its solubility at 24 h is? The compound is C[C@@H](O[C@H]1OCCN(Cc2nc(=O)[nH][nH]2)[C@H]1c1ccc(F)cc1)c1cc(C(F)(F)F)cc(C(F)(F)F)c1 [APR]
3150

====

assay: Equilibrium (apparent) solubility of APR, shake flask method; format: physicochemical; conditions: blank SNEDDS preconcentrate, 37 °C, organic solvent or mixture, thermodynamic from solid, Imwitor 988:Kolliphor RH40:Transcutol P (%) 20:40:40, 37 °C; read-out: APR solubility (loading capacity of SNEDDS preconcentrate)
parameter_measured: solubility at 24 h (mg/mL)
Respond numerically; units are mg/mL and should not be typed.

Any idea what its solubility at 24 h is? The compound is C[C@@H](O[C@H]1OCCN(Cc2nc(=O)[nH][nH]2)[C@H]1c1ccc(F)cc1)c1cc(C(F)(F)F)cc(C(F)(F)F)c1
29

====

test: Equilibrium (apparent) solubility of APR, shake flask method; type: physicochemical; settings: blank SNEDDS preconcentrate, 37 °C, organic solvent or mixture, thermodynamic from solid, Imwitor 988:Kolliphor RH40:Transcutol P (%) 10:80:10, 37 °C; read-out: APR solubility (loading capacity of SNEDDS preconcentrate)
parameter_measured: solubility at 24 h (mg/mL)
Respond numerically; units are mg/mL and should not be typed.

Any idea what its solubility at 24 h is? The compound is C[C@@H](O[C@H]1OCCN(Cc2nc(=O)[nH][nH]2)[C@H]1c1ccc(F)cc1)c1cc(C(F)(F)F)cc(C(F)(F)F)c1
15.5

====

Experiment: Equilibrium (apparent) solubility of APR, shake flask method
Assay type: physicochemical
Conditions: Labrafil M 2125 CS (surfactant), 25 °C, aqueous with cosolvent or surfactant or cyclodextrin, thermodynamic from solid, surfactant Labrafil M 2125 CS, 25 °C; read-out: APR solubility
Description: The solubility of APR in various buffers, oils, surfactants, cosurfactants, cosolvents, and formulations was measured using the shake flask method. Briefly, an excess APR was added into a polypropylene tube that contains a medium. Tube mixed by a vortex (Daihan VM-10, South Korea) for 1 min to disperse APR. Mixtures were shaken at 100 rpm for 24 h at various temperatures in a thermostatically controlled shaking water bath (Nüve ST30, Turkey). […]
parameter_measured: solubility at 24 h (µg/mL)
Respond numerically; units are µg/mL and should not be typed.

Any idea what its solubility at 24 h is? The compound is C[C@@H](O[C@H]1OCCN(Cc2nc(=O)[nH][nH]2)[C@H]1c1ccc(F)cc1)c1cc(C(F)(F)F)cc(C(F)(F)F)c1
2840

====

experiment: Equilibrium (apparent) solubility of APR, shake flask method; format: physicochemical; settings: Tween 20 (surfactant), 25 °C, aqueous with cosolvent or surfactant or cyclodextrin, thermodynamic from solid, surfactant Tween 20, 25 °C; read-out: APR solubility
parameter_measured: solubility at 24 h
Reply with the number, then its unit.

Any idea what its solubility at 24 h is? The compound is C[C@@H](O[C@H]1OCCN(Cc2nc(=O)[nH][nH]2)[C@H]1c1ccc(F)cc1)c1cc(C(F)(F)F)cc(C(F)(F)F)c1 [APR]
7820 µg/mL

====

experiment: Equilibrium (apparent) solubility of APR, shake flask method; assay type: physicochemical; conditions: Brij O10 (surfactant), 25 °C, aqueous with cosolvent or surfactant or cyclodextrin, thermodynamic from solid, surfactant Brij O10, 25 °C; read-out: APR solubility
parameter_measured: solubility at 24 h (µg/mL)
Respond numerically; units are µg/mL and should not be typed.

Any idea what its solubility at 24 h is? The compound is C[C@@H](O[C@H]1OCCN(Cc2nc(=O)[nH][nH]2)[C@H]1c1ccc(F)cc1)c1cc(C(F)(F)F)cc(C(F)(F)F)c1 [APR]
9870

====

experiment: Equilibrium (apparent) solubility of APR, shake flask method; assay type: physicochemical; conditions: Kolliphor ELP (surfactant), 25 °C, aqueous with cosolvent or surfactant or cyclodextrin, thermodynamic from solid, surfactant Kolliphor ELP, 25 °C; read-out: APR solubility
parameter_measured: solubility at 24 h
Reply with the number, then its unit.

Any idea what its solubility at 24 h is? The compound is C[C@@H](O[C@H]1OCCN(Cc2nc(=O)[nH][nH]2)[C@H]1c1ccc(F)cc1)c1cc(C(F)(F)F)cc(C(F)(F)F)c1
4230 µg/mL

====

assay: Equilibrium (apparent) solubility of APR, shake flask method; type: physicochemical; conditions: Labrafac PG (oily excipient), 25 °C, oil or lipid, thermodynamic from solid, oily excipient Labrafac PG, 25 °C; read-out: APR solubility
parameter_measured: solubility at 24 h (µg/mL)
Respond numerically; units are µg/mL and should not be typed.

Any idea what its solubility at 24 h is? The compound is C[C@@H](O[C@H]1OCCN(Cc2nc(=O)[nH][nH]2)[C@H]1c1ccc(F)cc1)c1cc(C(F)(F)F)cc(C(F)(F)F)c1
427

====

test: Equilibrium (apparent) solubility of APR, shake flask method; type: physicochemical; details: Miglyol 812 (oily excipient), 25 °C, oil or lipid, thermodynamic from solid, oily excipient Miglyol 812, 25 °C; read-out: APR solubility
parameter_measured: solubility at 24 h (mg/mL)
Respond numerically; units are mg/mL and should not be typed.

Any idea what its solubility at 24 h is? The molecule is C[C@@H](O[C@H]1OCCN(Cc2nc(=O)[nH][nH]2)[C@H]1c1ccc(F)cc1)c1cc(C(F)(F)F)cc(C(F)(F)F)c1
0.299

====

assay: Equilibrium (apparent) solubility of APR, shake flask method; assay type: physicochemical; details: PEG 200 (cosolvent), 25 °C, organic solvent or mixture, thermodynamic from solid, cosolvent PEG 200, 25 °C; read-out: APR solubility
parameter_measured: solubility at 24 h (mg/mL)
Respond numerically; units are mg/mL and should not be typed.

Any idea what its solubility at 24 h is? The compound is C[C@@H](O[C@H]1OCCN(Cc2nc(=O)[nH][nH]2)[C@H]1c1ccc(F)cc1)c1cc(C(F)(F)F)cc(C(F)(F)F)c1
11.7

====

assay: Equilibrium (apparent) solubility of APR, shake flask method; format: physicochemical; settings: 37 °C, organic solvent or mixture, thermodynamic from solid, Imwitor 988:Kolliphor RH40:Transcutol P (%) 20:60:20, 37 °C; read-out: APR solubility (loading capacity of SNEDDS preconcentrate)
parameter_measured: solubility at 24 h
Reply with the number, then its unit.

Any idea what its solubility at 24 h is? The compound is C[C@@H](O[C@H]1OCCN(Cc2nc(=O)[nH][nH]2)[C@H]1c1ccc(F)cc1)c1cc(C(F)(F)F)cc(C(F)(F)F)c1 [APR]
21.6 mg/mL

These entries and their values trace back to paper PMC8621193.
